# Target Under Test: HIV-1 Env of pseudovirus DU422 (HIV-1)
# Protocol Summary: cell-based or functional assay
Value Type: IC50, pseudovirus neutralization (TZM-bl assay)

{"columns": ["Binder", "Measured"],
 "data": [
  ["1469_M23 (PG16) (TCN-118) (antibody, V domains shown) VH: QEKLVESGGGVVQPGGSLRLSCLASGFTFHKYGMHWVRQAPGKGLEWVALISDDGMRKYHSDSMWGRVTISRDNSKNTLYLQFSSLKVEDTAMFFCAREAGGPIWHDDVKYYDFNDGYYNYHYMDVWGKGTTVTVSS VL: QSALTQPASVSGSPGQTITISCNGTRSDVGGFDSVSWYQQSPGRAPKVMVFDVSHRPSGISNRFSGSKSGNTASLTISGLHIEDEGDYFCSSLTDRSHRIFGGGTKLTVLG", "0.97 µg/mL"],
  ["1489_I13 (PG16) (TCN-120) (antibody, V domains shown) VH: QEQLLESGGGVVQPGGSLRLSCLASGFTFHKYGMHWVRQAPGKGLEWVALISDDGMRKYHSNSMWGRVTISRDNSKNTLYLQFSSLKVEDTAMFFCAREAGGPIWHDDVKYYDFNDGYYNYHYMDVWGKGTTVTVSS VL: QSALTQPASVSGSPGQTITISCNGTSSDVGGFDSVSWYQQSPGKAPKVMVFDVSHRPSGISNRFSGSKSGNTASLTISGLHIEDEGDYFCSSLTDRSHRIFGGGTKVTVLG", "1.87 µg/mL"],
  ["1456_A12 (PG16) (TCN-117) (antibody, V domains shown) VH: HEQLVEAGGGVVQPGGSLRLSCLASGFTFHKYGMHWVRQAPGKGLEWVALISDDGMRKYHSDSMWGRVTISRDNSKNTLYLQFSSLRVEDTAMFFCAREAGGPIWHDDVKYYDFNDGYYNYHYMDVWGKGTKVTVSS VL: QSALTQPASVSGSPGQTITISCNGTSRDVGGFDSVSWYQQSPGKAPKVMVFDVSHRPSGMSNRFSGSKSGNTASLTISGLHIEDEGDYFCSSLTDRSHRIFGGGTKLTVLG", "0.36 µg/mL"],
  ["1503_H05 (PG16) (TCN-119) (antibody, V domains shown) VH: QEKLVESGGGVVQPGGSLRLSCLASGFTFHKYGMHWVRQAPGKGLEWVALISDDGMRKYHSDSMWGRVTISRDNSKNTLYLQFSSLKVEDTAMFFCAREAGGPIWHDDVKYYDFNDGYYNYHYMDVWGKGTIVTVSS VL: QSALTQPASVSGSPGQTITISCNGTRSDVGGFDSVSWYQQSPGKAPKVMVFDVSHRPSGISNRFSGSKSGNTASLTISGLHIEDEGDYFCSSLTDRSHRIFGGGTKVTVLG", "0.71 µg/mL"]
]}

The reported numbers originate from patent US20240132578A1.
